# SYSTEM_TESTED: VPAC1 (Homo sapiens)
# Sequence (P32241 31-457): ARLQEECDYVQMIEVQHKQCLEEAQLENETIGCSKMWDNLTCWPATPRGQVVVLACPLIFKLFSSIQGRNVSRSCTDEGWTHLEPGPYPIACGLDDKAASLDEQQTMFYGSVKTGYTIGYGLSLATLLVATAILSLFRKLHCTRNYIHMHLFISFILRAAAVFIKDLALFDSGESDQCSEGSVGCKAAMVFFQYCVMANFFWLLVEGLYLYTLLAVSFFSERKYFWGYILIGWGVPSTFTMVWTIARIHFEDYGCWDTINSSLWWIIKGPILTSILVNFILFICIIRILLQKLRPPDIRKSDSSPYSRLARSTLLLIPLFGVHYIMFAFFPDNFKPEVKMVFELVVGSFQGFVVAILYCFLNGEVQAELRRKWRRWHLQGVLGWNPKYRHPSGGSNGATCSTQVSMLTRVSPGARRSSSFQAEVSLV
# PROTOCOL_SUMMARY: Assay of peptides at PAC and VPAC receptors: VPAC1 (EC50/EMax)
# Assay type: cell-based
MEASURED_PROPERTY: pEC50
pEC50 field: float, defined as -log10 of concentration (mol/L).

Query: Supply reported pEC50 belonging to this substance: HSDGIFTDSYSRYRKQLAVKKYLAAVd8L-Ser(Cell) [2ls98Cell]
Result: 9.28

Query: Supply reported pEC50 belonging to this substance: HSDGIFTDSYSRYRKQLAVd8KKYLAAVd8L-Ser(Lact) [2ls98Lact]
Result: 9.35

* * *

# SYSTEM_TESTED: PAC1 (Homo sapiens, UniProt P41586)
# Sequence (P41586 21-468): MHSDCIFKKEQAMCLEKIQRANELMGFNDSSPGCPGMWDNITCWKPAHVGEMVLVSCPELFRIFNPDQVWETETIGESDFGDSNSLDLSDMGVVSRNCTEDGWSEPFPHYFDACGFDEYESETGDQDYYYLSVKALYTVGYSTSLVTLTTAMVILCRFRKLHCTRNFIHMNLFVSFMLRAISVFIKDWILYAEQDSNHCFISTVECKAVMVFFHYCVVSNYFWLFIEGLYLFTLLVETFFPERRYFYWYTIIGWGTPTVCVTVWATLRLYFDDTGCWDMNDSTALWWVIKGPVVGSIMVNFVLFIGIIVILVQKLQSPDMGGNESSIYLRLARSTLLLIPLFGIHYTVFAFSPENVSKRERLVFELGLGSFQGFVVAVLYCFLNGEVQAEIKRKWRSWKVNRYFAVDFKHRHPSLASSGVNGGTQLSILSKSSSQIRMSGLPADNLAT
# PROTOCOL_SUMMARY: Assay of peptides at PAC and VPAC receptors: PAC1 (EC50/EMax)
# Assay type: cell-based
MEASURED_PROPERTY: pEC50
pEC50 field: float, defined as -log10 of concentration (mol/L).

Query: Supply reported pEC50 belonging to this substance: HSDGIFTDSYSRYRKQLAVd8KKYLAAVd8L-Ser(Lact) [2ls98Lact]
Result: 9.14

Query: Supply reported pEC50 belonging to this substance: HSDGIFTDSYSRYRKQLAVKKYLAAVd8L-Ser(Cell) [2ls98Cell]
Result: 9.08

Source: patent US20220380431A1
